Source listed as the Human Domainome abundance scans (Beltran et al. 2025).

B1: Calcium-binding protein 2, residues 155 to 219; numbered along this chain, Q9NPB3 (parent)
chain: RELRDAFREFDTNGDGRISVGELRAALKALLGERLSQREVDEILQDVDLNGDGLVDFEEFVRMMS

variants of: B1; experiment: abundance fitness (aPCA) (normalised: wild type 0, dead -1); higher = more abundant; growth selection in yeast, the domain comes from the species named; conditions: Homo sapiens
The variants listed here are annotated with their abundance fitness.

{"MUTATION_LIST": "F7K", "abundance fitness": -1.12}
{"MUTATION_LIST": "D56Q", "abundance fitness": -0.153}
{"MUTATION_LIST": "E33Q", "abundance fitness": -0.009}
{"MUTATION_LIST": "G21M", "abundance fitness": -0.09}
{"MUTATION_LIST": "A29N", "abundance fitness": -0.438}
{"MUTATION_LIST": "N50E", "abundance fitness": -0.19}
{"MUTATION_LIST": "R38K", "abundance fitness": -0.67}
{"MUTATION_LIST": "E9A", "abundance fitness": -0.189}
{"MUTATION_LIST": "E42R", "abundance fitness": -0.08}
{"MUTATION_LIST": "R62Q", "abundance fitness": -0.145}
{"MUTATION_LIST": "E58A", "abundance fitness": -0.077}
{"MUTATION_LIST": "E58M", "abundance fitness": -0.202}
{"MUTATION_LIST": "A29L", "abundance fitness": -0.051}
{"MUTATION_LIST": "G32W", "abundance fitness": -0.282}
{"MUTATION_LIST": "M64V", "abundance fitness": 0.157}
{"MUTATION_LIST": "D56N", "abundance fitness": -0.022}
{"MUTATION_LIST": "S19M", "abundance fitness": -0.285}
{"MUTATION_LIST": "M63D", "abundance fitness": -0.323}
{"MUTATION_LIST": "R38V", "abundance fitness": -0.021}
{"MUTATION_LIST": "V61K", "abundance fitness": -0.029}
{"MUTATION_LIST": "V55T", "abundance fitness": -0.038}
{"MUTATION_LIST": "V40G", "abundance fitness": -0.055}
{"MUTATION_LIST": "M64L", "abundance fitness": -0.025}
{"MUTATION_LIST": "R17A", "abundance fitness": 0.001}
{"MUTATION_LIST": "R17P", "abundance fitness": -0.701}
{"MUTATION_LIST": "R62P", "abundance fitness": -0.37}
{"MUTATION_LIST": "D48A", "abundance fitness": 0.068}
{"MUTATION_LIST": "S36T", "abundance fitness": 0.012}
{"MUTATION_LIST": "F60H", "abundance fitness": -0.875}
{"MUTATION_LIST": "I43K", "abundance fitness": 0.053}
{"MUTATION_LIST": "N50M", "abundance fitness": -0.833}
{"MUTATION_LIST": "D56T", "abundance fitness": 0.019}
{"MUTATION_LIST": "L27T", "abundance fitness": 0.064}
{"MUTATION_LIST": "M63S", "abundance fitness": -0.158}
{"MUTATION_LIST": "E22R", "abundance fitness": -0.549}
{"MUTATION_LIST": "I18N", "abundance fitness": -1.01}
{"MUTATION_LIST": "E22P", "abundance fitness": -1.05}
{"MUTATION_LIST": "A29G", "abundance fitness": -0.135}
{"MUTATION_LIST": "E59S", "abundance fitness": -0.075}
{"MUTATION_LIST": "N13V", "abundance fitness": -0.668}
{"MUTATION_LIST": "I43T", "abundance fitness": 0.092}
{"MUTATION_LIST": "F10K", "abundance fitness": -0.155}
{"MUTATION_LIST": "I18A", "abundance fitness": -0.736}
{"MUTATION_LIST": "S36W", "abundance fitness": -0.177}
{"MUTATION_LIST": "D11Y", "abundance fitness": -0.651}
{"MUTATION_LIST": "L31G", "abundance fitness": 0.076}
{"MUTATION_LIST": "V40D", "abundance fitness": 0.043}
{"MUTATION_LIST": "L23G", "abundance fitness": -0.193}
{"MUTATION_LIST": "A26P", "abundance fitness": -0.251}
{"MUTATION_LIST": "V47E", "abundance fitness": -0.137}
{"MUTATION_LIST": "E59N", "abundance fitness": -0.282}
{"MUTATION_LIST": "F7M", "abundance fitness": -0.33}
{"MUTATION_LIST": "R62T", "abundance fitness": -0.182}
{"MUTATION_LIST": "L27Q", "abundance fitness": -0.095}
{"MUTATION_LIST": "D56R", "abundance fitness": -0.088}
{"MUTATION_LIST": "D5M", "abundance fitness": -0.171}
{"MUTATION_LIST": "A26T", "abundance fitness": -0.268}
{"MUTATION_LIST": "D46Q", "abundance fitness": -0.152}
{"MUTATION_LIST": "L35N", "abundance fitness": 0.091}
{"MUTATION_LIST": "A26R", "abundance fitness": -0.371}
{"MUTATION_LIST": "V47W", "abundance fitness": -0.199}
{"MUTATION_LIST": "V61C", "abundance fitness": -0.014}
{"MUTATION_LIST": "S36H", "abundance fitness": -0.564}
{"MUTATION_LIST": "K28F", "abundance fitness": -0.277}
{"MUTATION_LIST": "L31F", "abundance fitness": 0.047}
{"MUTATION_LIST": "S19P", "abundance fitness": -0.43}
{"MUTATION_LIST": "V47K", "abundance fitness": -0.064}
{"MUTATION_LIST": "N13C", "abundance fitness": -0.489}
{"MUTATION_LIST": "T12P", "abundance fitness": -0.695}
{"MUTATION_LIST": "S36R", "abundance fitness": -0.004}
{"MUTATION_LIST": "L35Q", "abundance fitness": 0.043}
{"MUTATION_LIST": "A29Q", "abundance fitness": -0.04}
{"MUTATION_LIST": "Q45T", "abundance fitness": 0.003}
{"MUTATION_LIST": "D56H", "abundance fitness": -0.015}
{"MUTATION_LIST": "E33I", "abundance fitness": -0.074}
{"MUTATION_LIST": "E58L", "abundance fitness": -0.008}
{"MUTATION_LIST": "E59L", "abundance fitness": 0.071}
{"MUTATION_LIST": "V61G", "abundance fitness": -0.005}
{"MUTATION_LIST": "D5L", "abundance fitness": -0.32}
{"MUTATION_LIST": "E33T", "abundance fitness": -0.032}
{"MUTATION_LIST": "G21L", "abundance fitness": -0.049}
{"MUTATION_LIST": "G53C", "abundance fitness": -0.121}
{"MUTATION_LIST": "R17G", "abundance fitness": 0.045}
{"MUTATION_LIST": "K28C", "abundance fitness": -0.01}
{"MUTATION_LIST": "R17K", "abundance fitness": 0.017}
{"MUTATION_LIST": "L27A", "abundance fitness": 0.122}
{"MUTATION_LIST": "L31E", "abundance fitness": 0.069}
{"MUTATION_LIST": "Q45L", "abundance fitness": 0.015}
{"MUTATION_LIST": "G21D", "abundance fitness": 0.141}
{"MUTATION_LIST": "V40W", "abundance fitness": 0.041}
{"MUTATION_LIST": "T12K", "abundance fitness": -0.03}
